Tested on: MDA-MB-435
experiment.notes: Cytotoxicity against human MDA-MB-435 cells expressing Bcl-xL, Bcl-2 and Mcl-1 at 100 ug/ml after 72 hrs by MTT assay relative to control
Assay type: functional
test.context: MDA-MB-435, 72 h, read-out: GI
Tick Yes if inhibition of growth at 100 µg/mL is 30% or greater. Tick No if inhibition of growth at 100 µg/mL is less than 30%.

**Q:** Please check the record CC(=O)N[C@@H](Cc1ccccc1)C(=O)Nc1ccc(C(=O)NS(=O)(=O)c2ccc(NCCSc3ccccc3)c([N+](=O)[O-])c2)cc1 and state if its inhibition of growth at 100 µg/mL is at or above 30%.
**A:** Yes

**Q:** Request: CN(C)CC[C@H](CSc1ccccc1)Nc1ccc(S(=O)(=O)NC(=O)c2ccc(N3CCN(Cc4ccccc4-c4ccc(Cl)cc4)CC3)cc2)cc1[N+](=O)[O-]
**A:** Yes

**Q:** Request: CC(=O)N[C@H](C(=O)Nc1ccc(C(=O)NS(=O)(=O)c2ccc(NCCSc3ccccc3)c([N+](=O)[O-])c2)cc1)C(C)C
**A:** No

**Q:** Request: CC(=O)N[C@@H](CC(C)C)C(=O)Nc1ccc(C(=O)NS(=O)(=O)c2ccc(NCCSc3ccccc3)c([N+](=O)[O-])c2)cc1
**A:** No

**Q:** Request: CC[C@H](C)[C@H](NC(C)=O)C(=O)Nc1ccc(C(=O)NS(=O)(=O)c2ccc(NCCSc3ccccc3)c([N+](=O)[O-])c2)cc1
**A:** No

**Q:** Request: CC(=O)N[C@@H](Cc1c[nH]c2ccccc12)C(=O)Nc1ccc(C(=O)NS(=O)(=O)c2ccc(NCCSc3ccccc3)c([N+](=O)[O-])c2)cc1
**A:** No

**Q:** Request: CSCC[C@H](NC(C)=O)C(=O)Nc1ccc(C(=O)NS(=O)(=O)c2ccc(NCCSc3ccccc3)c([N+](=O)[O-])c2)cc1
**A:** No

###

Consider the following compounds; for each one, report its pKi.
study.system: Induced myeloid leukemia cell differentiation protein Mcl-1 (Homo sapiens)
Sequence (Q07820 whole entry): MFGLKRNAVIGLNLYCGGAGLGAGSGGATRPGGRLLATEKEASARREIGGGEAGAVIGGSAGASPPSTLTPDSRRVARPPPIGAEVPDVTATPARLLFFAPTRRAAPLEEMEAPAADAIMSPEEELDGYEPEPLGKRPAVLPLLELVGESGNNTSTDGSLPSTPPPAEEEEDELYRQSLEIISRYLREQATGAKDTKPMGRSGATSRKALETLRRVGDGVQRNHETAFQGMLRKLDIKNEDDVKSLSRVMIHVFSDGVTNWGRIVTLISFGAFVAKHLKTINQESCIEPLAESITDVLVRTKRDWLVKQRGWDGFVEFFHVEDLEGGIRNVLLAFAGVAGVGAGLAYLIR
experiment.notes: Binding affinity to Mcl-1 by competitive fluorescence polarization assay
Remember, pKi is on a log scale: it is -log10 of the molar concentration.

**Q:** So what's the measured pKi for this one? CSCC[C@H](NC(C)=O)C(=O)Nc1ccc(C(=O)NS(=O)(=O)c2ccc(NCCSc3ccccc3)c([N+](=O)[O-])c2)cc1
**A:** 5.51

**Q:** Request: O=C(Nc1ccc(C(=O)NS(=O)(=O)c2ccc(NCCSc3ccccc3)c([N+](=O)[O-])c2)cc1)c1ccc(Br)cc1
**A:** 5.39

**Q:** Request: CC(=O)N[C@@H](CC(C)C)C(=O)Nc1ccc(C(=O)NS(=O)(=O)c2ccc(NCCSc3ccccc3)c([N+](=O)[O-])c2)cc1
**A:** 5.74

**Q:** Request: CC(=O)N[C@@H](Cc1c[nH]c2ccccc12)C(=O)Nc1ccc(C(=O)NS(=O)(=O)c2ccc(NCCSc3ccccc3)c([N+](=O)[O-])c2)cc1
**A:** 5.39

**Q:** Request: O=C(NS(=O)(=O)c1ccc(NCCSc2ccccc2)c([N+](=O)[O-])c1)c1ccc(NC(=O)c2ccccc2F)cc1
**A:** 5.52

**Q:** Request: O=C(NS(=O)(=O)c1ccc(NCCSc2ccccc2)c([N+](=O)[O-])c1)c1ccc(NS(=O)(=O)c2ccccc2)cc1
**A:** 5.14

**Q:** Request: CC(=O)N[C@H](C(=O)Nc1ccc(C(=O)NS(=O)(=O)c2ccc(NCCSc3ccccc3)c([N+](=O)[O-])c2)cc1)C(C)C
**A:** 5.49

**Q:** Request: CC[C@H](C)[C@H](NC(C)=O)C(=O)Nc1ccc(C(=O)NS(=O)(=O)c2ccc(NCCSc3ccccc3)c([N+](=O)[O-])c2)cc1
**A:** 5.64

**Q:** Request: CC(=O)N[C@@H](Cc1ccccc1)C(=O)Nc1ccc(C(=O)NS(=O)(=O)c2ccc(NCCSc3ccccc3)c([N+](=O)[O-])c2)cc1
**A:** 5.51

**Q:** Request: O=C(Nc1ccc(C(=O)NS(=O)(=O)c2ccc(NCCSc3ccccc3)c([N+](=O)[O-])c2)cc1)c1ccc(F)cc1
**A:** 5.60

**Q:** Request: O=C(Nc1ccc(C(=O)NS(=O)(=O)c2ccc(NCCSc3ccccc3)c([N+](=O)[O-])c2)cc1)c1ccccc1
**A:** 5.38

**Q:** Request: O=C(Nc1ccc(C(=O)NS(=O)(=O)c2ccc(NCCSc3ccccc3)c([N+](=O)[O-])c2)cc1)c1cccc(F)c1
**A:** 5.51

**Q:** Request: COc1ccc(C(=O)Nc2ccc(C(=O)NS(=O)(=O)c3ccc(NCCSc4ccccc4)c([N+](=O)[O-])c3)cc2)cc1
**A:** 5.51

###

Test system: Raji
experiment.notes: Cytotoxicity against human Raji cells expressing Bcl-xL, Bcl-2 and Mcl-1 at 100 ug/ml after 72 hrs by MTT assay relative to control
Format: functional
test.context: read-out: GI
Tick met if inhibition of growth at 100 µg/mL is 40% or greater. Tick not met if inhibition of growth at 100 µg/mL is less than 40%.

**Q:** Please check the record CC(=O)N[C@@H](Cc1ccccc1)C(=O)Nc1ccc(C(=O)NS(=O)(=O)c2ccc(NCCSc3ccccc3)c([N+](=O)[O-])c2)cc1 and state if its inhibition of growth at 100 µg/mL is at or above 40%.
**A:** not met

**Q:** Request: CN(C)CC[C@H](CSc1ccccc1)Nc1ccc(S(=O)(=O)NC(=O)c2ccc(N3CCN(Cc4ccccc4-c4ccc(Cl)cc4)CC3)cc2)cc1[N+](=O)[O-]
**A:** met

**Q:** Request: CC(=O)N[C@@H](Cc1c[nH]c2ccccc12)C(=O)Nc1ccc(C(=O)NS(=O)(=O)c2ccc(NCCSc3ccccc3)c([N+](=O)[O-])c2)cc1
**A:** not met

**Q:** Request: CC(=O)N[C@@H](CC(C)C)C(=O)Nc1ccc(C(=O)NS(=O)(=O)c2ccc(NCCSc3ccccc3)c([N+](=O)[O-])c2)cc1
**A:** met

**Q:** Request: CC(=O)N[C@H](C(=O)Nc1ccc(C(=O)NS(=O)(=O)c2ccc(NCCSc3ccccc3)c([N+](=O)[O-])c2)cc1)C(C)C
**A:** not met
